assay text: Absorption and fluorescence spectra at different pH solutions, pKa
Assay type: physicochemical
condition: pH solutions of phosphate buffer, 1% DMSO
Method: Spectrum recorded at room temperature in PBS buffer at varying pH with 1% (v/v) of DMSO, in all cases probe concentration=10 μM. Next, we investigated the absorption and fluorescent properties of LysoShine 1, LysoShine 2, and MitoShine (FIG. 2). The LysoShine 1 in different pH solutions of phosphate buffer (1% DMSO in 1M PBS) has an absorption centered around 500 nm and emission maximum at 505 nm with 480 nm excitation. […]
Entries and their measured absorption maximum follow.
Please give a number only; it is taken to be in nm.

| compound | recorded number |
| --- | --- |
| CCOC(=O)C1=C(C)C2=C(c3ccc(NC(=O)CNCCN4CCOCC4)cc3)c3c(C)c(C(=O)OCC)c(C)n3[B-](F)(F)[N+]2=C1C [LysoShine 2] | 500 |
| CCOC(=O)C1=C(C)C2=C(c3ccc(NC(=O)CBr)cc3)c3c(C)c(C(=O)OCC)c(C)n3[B-](F)(F)[N+]2=C1C [Compound 10] | 505 |

Form: compound = CCOC(=O)C1=C(C)C2=C(c3ccc(NC(=O)C[P+](c4ccccc4)(c4ccccc4)c4ccccc4)cc3)c3c(C)c(C(=O)OCC)c(C)n3[B-](F)(F)[N+]2=C1C.[Br-] [MitoShine] ; absorption maximum = 505

###

assay text: Absorption and fluorescence spectra at different pH solutions, pKa
Assay type: physicochemical
condition: pH buffer solutions
pH at which high fluorescence is shown values by entry
The response must contain the number and no unit.

| test smiles | pH at which high fluorescence is shown |
| --- | --- |
| CCOC(=O)C1=C(C)C2=C(c3ccc(NC(=O)C[P+](c4ccccc4)(c4ccccc4)c4ccccc4)cc3)c3c(C)c(C(=O)OCC)c(C)n3[B-](F)(F)[N+]2=C1C.[Br-] | 4 |

get_value(item= "CCOC(=O)C1=C(C)C2=C(c3ccc(NC(=O)CN(CC)CC)cc3)c3c(C)c(C(=O)OCC)c(C)n3[B-](F)(F)[N+]2=C1C" , readout=pH at which high fluorescence is shown) returns 4

###

Measured emission maximum accompanies every entry in the list below.
assay text: Absorption and fluorescence spectra at different pH solutions, pKa
Format: physicochemical
condition: excitation 480 nm; pH solutions of phosphate buffer, 1% DMSO
Numeric only. Scale: nm

Look over these answered cases.
| test smiles | emission maximum, nm |
| --- | --- |
| CCOC(=O)C1=C(C)C2=C(c3ccc(NC(=O)CNCCN4CCOCC4)cc3)c3c(C)c(C(=O)OCC)c(C)n3[B-](F)(F)[N+]2=C1C | 512 |
| CCOC(=O)C1=C(C)C2=C(c3ccc(NC(=O)CN(CC)CC)cc3)c3c(C)c(C(=O)OCC)c(C)n3[B-](F)(F)[N+]2=C1C | 505 |
| CCOC(=O)C1=C(C)C2=C(c3ccc(NC(=O)CBr)cc3)c3c(C)c(C(=O)OCC)c(C)n3[B-](F)(F)[N+]2=C1C | 510 |

# next compound below
Record "CCOC(=O)C1=C(C)C2=C(c3ccc(NC(=O)C[P+](c4ccccc4)(c4ccccc4)c4ccccc4)cc3)c3c(C)c(C(=O)OCC)c(C)n3[B-](F)(F)[N+]2=C1C.[Br-]" . Reported emission maximum: 535

###

assay text: Absorption and fluorescence spectra at different pH solutions, pKa
Format: physicochemical
condition: pH buffer solutions
measured property: pH at which high fluorescence is shown

Data point: CCOC(=O)C1=C(C)C2=C(c3ccc(N(C)C)cc3)c3c(C)c(C(=O)OCC)c(C)n3[B-](F)(F)[N+]2=C1C [Compound 5] ; pH at which high fluorescence is shown = ≤ 2.0
